Record form. Attribute: TGI. Fill in for each entry.
system: OVCAR-8 ovarian; assay: NCI tumour cell line growth inhibition, 48 h

Below, each entry is followed by its recorded TGI result.
O=C1C(Cl)C(c2ccccc2)N1n1cnc2ccccc2c1=O (stereo not drawn) = > 100 µM
CCN1C(=O)N(CC)C2C1NC(=S)N2/N=C/C=C/c1cccs1 (stereo not drawn) = > 100 µM
COc1ccc2c(c1)CN1C(=N2)CSC1c1cc([N+](=O)[O-])ccc1Cl (stereo not drawn) = > 100 µM
COC(=O)C(=C/c1ccc(OC)cc1)/C(C(=O)O)=C(/C)c1ccccc1 = > 100 µM
O=C(/C=C/c1c(O)ccc2ccccc12)c1ccc2ccccc2c1 = > 100 µM

Dear colleague, could you send me TGI for each of the items below? Thanks.
1. Fc1ccc(Nc2cc(-n3nnc4ccccc43)nc3ccccc23)cc1
2. O=C(CN1CCCCC1)N1CCc2c([nH]c3ccccc23)C1c1cccnc1 (stereo not drawn)

1. > 79 µM
2. > 100 µM

Dear colleague, could you send me TGI for each of the items below? Thanks.
1. Cc1ccc2c(c1CCCC(C)(C)O)C(=O)C(=O)C(C(C)C)=C2O
2. CCOC(=O)CCc1c(C)c2c(OC(C)=O)cc(OC(C)=O)cc2oc1=O

1. > 100 µM
2. > 100 µM

Dear colleague, could you send me TGI for each of the items below? Thanks.
1. COc1cc(NC(C)CCCN)c2nccc(C)c2c1OC (stereo not drawn)
2. Cc1cn2c(=O)c3ccccc3nc2s1
3. COn1cc(C=O)c2ccccc21

["42.3 µM", "> 100 µM", "> 100 µM"]

Dear colleague, could you send me TGI for each of the items below? Thanks.
1. Nc1ccc(C(=O)NN2C(=O)C(Cl)C2c2ccccc2Cl)cc1 (stereo not drawn)
2. C=CCN1C[C@H](C)N([C@H](c2ccc(C(=O)N(CC)CCO)cc2)c2cccc(OC)c2)C[C@H]1C

["10.8 µM", "> 100 µM"]

Dear colleague, could you send me TGI for each of the items below? Thanks.
1. COc1ccccc1NC(=O)C1=C(C)NC(C)=C(C(=O)Nc2ccccc2OC)C1c1ccc([N+](=O)[O-])cc1
2. CC(=O)c1csc2c1C(=O)c1scc(C(C)=O)c1C2=O
3. CC1=C(C(=O)Nc2c(C)cccc2C)C(c2ccccc2Cl)C(C(=O)Nc2c(C)cccc2C)=C(C)N1
4. O=C(Nc1ccc([N+](=O)[O-])cc1)C1C(=O)C(=O)N(c2ccc([N+](=O)[O-])cc2)C1=O (stereo not drawn)

1: > 100 µM; 2: 3.09 µM; 3: > 100 µM; 4: > 100 µM

###

system: NCI-H522 lung; assay: NCI tumour cell line growth inhibition, 48 h
Record form. Attribute: TGI. Fill in for each entry.
Give bare numbers, in µM.

COC(CN(C(=O)c1ccccc1)C1CCC2(SCCS2)c2[nH]c3ccccc3c21)OC (stereo not given) = 65.4
O=C(c1ccccc1)c1c(-c2ccccc2)[nH]n(-c2ccc([N+](=O)[O-])cc2)c(=O)c1=O = 73.7
Nc1nc(Nc2ccccc2)c2ncn(Cc3cc4c(cc3Br)OCO4)c2n1 = 0.207

Below: the item to evaluate.
So what's the measured TGI for this one? COc1cc(/C=C2\C[C@H]3[C@@H]4CC=C5C[C@@H](O)CC[C@]5(C)[C@H]4CC[C@]3(C)C2=O)cc(OC)c1OC
67.8

###

Record form. Attribute: TGI. Fill in for each entry.
test system: NCI-H23 lung; assay: NCI tumour cell line growth inhibition, 48 h

Below, each entry is followed by its recorded TGI result.
O=C(CCC(=O)Nc1cccc(Cl)c1)CC(=O)c1ccc(Cl)cc1 = > 100 µM
CC(=O)N(C(=O)CC(=O)N/N=C\c1ccc(Br)c(N(CCC#N)CCC#N)c1)c1ccc(Cl)cc1 = > 100 µM
COc1ccc2c(c1C)C(=O)C(O)(CC=C(C)C)O2 (stereo not given) = > 100 µM
CCOC(=O)C(N)CSC(=O)NC (stereo not given) = 469 µM
N#CC(/C(=N/NC(=O)C(=O)NN)C(=O)NC12CC3CC(CC(C3)C1)C2)c1ccccc1 (stereo not given) = > 100 µM

Dear colleague, could you send me TGI for each of the items below? Thanks.
1. C=C1C(=O)O[C@H]2[C@H]1[C@@H](OC(=O)C=C(C)C)CC1=C[C@@H](C[C@@]3(C)O[C@@H]23)OC1=O
2. COC(COC(=O)N1CCN(C=O)CC1)C1=C(N2CC2)C(=O)C(C)=C(N2CC2)C1=O (stereo not given)
3. Nc1nc(Cl)cc(NCCO)n1
4. CSC1(CC(=O)N(C)C)C(=O)Nc2ccccc21 (stereo not given)
5. CCC1c2[nH]c3ccccc3c2C[C@H]2C(=O)NC(COC(C)(C)C)C(=O)N12 (stereo not given in full)

13.5 µM
0.926 µM
> 100 µM
> 100 µM
> 100 µM

###

tested on: T-47D breast; test: NCI tumour cell line growth inhibition, 48 h
PROPERTY MEASURED: TGI

Below, each entry is followed by its recorded TGI result.
C/C(=N\Nc1cc(CN2CCCC2)c(-c2ccc(Cl)cc2)nn1)C(=O)O = > 100 µM
CCN(CC)CCNCC(=O)Oc1ccc(/C=C/C(=O)CC(=O)/C=C/c2ccc(OC(=O)CNCCN(CC)CC)c(OC)c2)cc1OC = 31.6 µM
CCOC(=O)C1=C(Nc2cccc(OC)c2)OCC1=O = > 100 µM

Dear colleague, could you send me TGI for each of the items below? Thanks.
1. N#CSc1nc[nH]c1C(N)=O
2. CC(=O)c1sc2c(c1OC(=O)c1cccs1)c(=O)n(-c1ccccc1)c(=S)n2-c1ccccc1

1. > 100 µM
2. > 100 µM

###

system: COLO 205 colon; assay: NCI tumour cell line growth inhibition, 48 h
PROPERTY MEASURED: log10 of TGI (log10 of the value in µM)
Answers are given as log10 of TGI in µM.

CC(=O)Oc1ccccc1C(=O)N=C1[Se]CCN1C(=O)c1ccccc1OC(C)=O = 0.61
C#C[C@]1(O)CC[C@H]2[C@@H]3CC=C4c5sc(Nc6ccccc6)nc5CC[C@]4(C)[C@H]3CC[C@@]21C = 0.73
Cc1ccc2nc(-c3ccc(N)c(I)c3)sc2c1 = 1.49
O=C1NC(=O)C(c2c[nH]c3cc(Br)ccc23)=C1c1cn(C(c2ccccc2)(c2ccccc2)c2ccccc2)cn1 = 1.44
Cc1[nH]n(-c2cccc(Cl)c2)c(=O)c1/C=C1\C=Nc2ccc(Br)cc21 = 0.63
Cc1c(C2Nc3ccccc3C2C)[nH]c2ccccc12 (configuration not stated) = 1.35

Dear colleague, could you send me log10 of TGI for each of the items below? Thanks.
1. CCCCCc1c(C)[nH]c(/C=C2\N=C(c3ccc[nH]3)C=C2CC)c1C
2. CC(=O)OC1CC2c3cccc4c3C(CC2N(C)C1=O)CN4C(=O)c1ccccc1 (configuration not stated)
3. CCN1CCN(c2ccc(Nc3ccnc4ccc5nn(C)nc5c34)cc2)CC1

-0.87
1.75
1.26

###

system: T-47D breast; experiment: NCI tumour cell line growth inhibition, 48 h
Criterion: TGI meeting or surpassing 60 µM. Met: 1.0. Not met: 0.0.

Check if TGI >= 60 µM (inclusive). Item: O=c1cc(-c2ccccc2)[nH]c2cc3c(cc12)OCO3
1.0

Check if TGI >= 60 µM (inclusive). Item: Cc1c(C2Nc3ccccc3C2C)[nH]c2ccccc12 (configuration not stated)
0.0

Check if TGI >= 60 µM (inclusive). Item: C#CC(=O)Nc1cccc(Nc2nc3c(c(NCc4ccccc4)n2)CCCC3)c1
0.0

Check if TGI >= 60 µM (inclusive). Item: O=C(CCCN1CC=C(n2c(=O)[nH]c3ccccc32)CC1)c1ccc(F)cc1
1.0

Check if TGI >= 60 µM (inclusive). Item: C=CCN1C[C@H](C)N([C@H](c2ccc(C(=O)N(CC)CCO)cc2)c2cccc(OC)c2)C[C@H]1C
1.0

Check if TGI >= 60 µM (inclusive). Item: CC(=O)Oc1ccccc1C(=O)N=C1[Se]CCN1C(=O)c1ccccc1OC(C)=O
0.0

Check if TGI >= 60 µM (inclusive). Item: C[C@]12CCC(=O)C=C1CC[C@@H]1C2CC[C@]2(C)c3nn(-c4ccc(F)cc4)nc3CC12 (some centres not stated)
1.0

Check if TGI >= 60 µM (inclusive). Item: CCCS(=O)(=O)Nc1ccc(Nc2c3ccccc3nc3ccccc23)c(OC)c1
0.0

Check if TGI >= 60 µM (inclusive). Item: O=C(N/N=C\c1cc(Br)ccc1O)c1ccncc1
1.0

Check if TGI >= 60 µM (inclusive). Item: CC1(C)c2ccccc2C(=O)C12CCC(=O)CC2
1.0

Check if TGI >= 60 µM (inclusive). Item: CN(C)Cc1c[nH]c2c1C(=O)c1c(c(O)c3ccccc3c1O)C2=O
1.0
